experiment: Primary imaging screen for DUSP6 inhibitors that restore phospho-Erk in transfected HeLa cells, chemical complementation (AID 609); conditions: HeLa MKP-3 transfected, phospho-Erk imaging KS statistic; measured here: cell density z-score; at 10 µM
READOUT_KIND: z-score
No unit in the answer, please; the number alone is enough.

CCCN(CC#CCO)CCC: 0.317
O=C1c2ccccc2C(=O)N1Cc1nc2ccccc2c(=O)n1-c1cccnc1: -1.74
COc1ccccc1-n1c(O)c(C=NCCCn2ccnc2)c(=O)[nH]c1=O: -0.173
O=C(COc1ccc2ccccc2c1)N1CCN(C2CCN(Cc3ccccc3)CC2)CC1: 0.592
CCOC(=O)c1cc(C)n(CCc2cnc[nH]2)c1C: -1.19
CN1CCc2nc3sc(C#N)c(N)c3c(-c3cccs3)c2C1: 0.586

Memo: Cc1c(N=Cc2c(O)n(CCc3ccccc3)c(=O)[nH]c2=O)c(=O)n(-c2ccccc2)n1C , reported z-score: 1.02

Memo: CNC(=O)N(C)c1nnc(C(C)(C)C)s1 , reported z-score: -3.07

###

assay: Primary imaging screen for DUSP6 inhibitors that restore phospho-Erk in transfected HeLa cells, chemical complementation (AID 609); settings: HeLa MKP-3 transfected, phospho-Erk imaging KS statistic; measured here: nuclear pErk red intensity z-score; at 10 µM; stronger effect = higher value
Residues, ends and D or L forms follow the SMILES beside them.
READOUT_KIND: z-score

c1ccc2c3c([nH]c2c1)CNCC3: -0.521
COc1ccc(C2SCC(=O)Nc3c2c(=O)[nH]n3C2CCCCCC2)cc1 (stereo unspecified): -1.4
O=C1CC[C@@]2(O)[C@H]3Cc4ccc(O)c5c4[C@@]2(CCN3CC2CC2)[C@H]1O5: 0.423
O=c1[nH]c2ccccc2n1CCCN1CCC(n2c(=O)[nH]c3cc(Cl)ccc32)CC1: 0.563
CCN(CC)c1ccc(N=Cc2c(O)n(-c3ccccc3C)c(=O)[nH]c2=O)cc1: 0.0511
CCCCCCn1c(O)c(C=NCCCn2ccnc2)c(=O)[nH]c1=O: -0.817
CC(C)C[C@H](NC(=O)[C@@H]1CCCN1C(=O)[C@@H](N)Cc1ccc(O)cc1)C(=O)NCC(N)=O (H-YPLG-NH2): -1.27
CCOc1ccccc1-n1c(O)c(C=Nc2ccc(N(CC)CC)cc2)c(=O)[nH]c1=O: -0.873

Memo: COc1cc2[nH]c(=O)n(-c3cccc(Cl)c3)c(=O)c2cc1OC , reported z-score: 1.07

Memo: CCn1c(O)c(C(=O)CC2NCCc3ccccc32)c(=O)n(CC)c1=S (stereo unspecified) , reported z-score: 1.31

Memo: CCC(=NCCN1CCCCC1)c1c(O)n(C)c(=O)n(C)c1=O , reported z-score: 0.171

Memo: CN(C)[C@@H]1C(=O)C(C(N)=O)=C(O)[C@@]2(O)C(=O)C3=C(O)c4c(O)cccc4[C@@](C)(O)[C@H]3[C@H](O)[C@@H]12 , reported z-score: -0.511

Memo: CNCC(O)c1ccc(O)cc1 (stereo unspecified) , reported z-score: 1.33

Memo: c1ccc(Cn2ccnc2)cc1 , reported z-score: 1.06

Memo: O=c1c2ccccc2[se]n1-c1ccccc1 , reported z-score: -0.954

Memo: CN1CCN(C(=O)OC2c3nccnc3C(=O)N2c2ccc(Cl)cn2)CC1 (stereo unspecified) , reported z-score: 0.116

Memo: CCCCNC(=O)Nc1ccc(C(O)(C(=O)OC)C(F)(F)F)cc1 (stereo unspecified) , reported z-score: 0.72

Memo: CCOCCN1CCC(OC(C)=O)C(C)C1 (stereo unspecified) , reported z-score: -0.74

Memo: CCCCn1c(O)c(C=NCCN2CCCCC2)c(=O)[nH]c1=O , reported z-score: -0.0585

Memo: Nc1ncc(P(=S)(N2CCOCC2)N2CCOCC2)s1 , reported z-score: -1.06

Memo: CCCCCCn1c(O)c(C=Nc2c(C)n(C)n(-c3ccccc3)c2=O)c(=O)[nH]c1=O , reported z-score: 1.54

Memo: CC(=O)C1(c2ccccc2)CCNCC1 , reported z-score: 0.843

###

Overview of recorded slope for various compounds
biological target: Alpha-2C adrenergic receptor (Homo sapiens) (UniProt P18825); assay: compounds altering alpha2C-coupled GIRK flux – cell-based, HEK293 alpha2C/GIRK1/2, thallium flux, primary screen (AID 624); conditions: thallium flux BTC fluorescence, at 10 µM, actives lie on both sides;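 further: slope of fluorescence ratio to pre-addition baseline per second over 15 to 24 s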
Sequence (P18825 whole entry, looked up): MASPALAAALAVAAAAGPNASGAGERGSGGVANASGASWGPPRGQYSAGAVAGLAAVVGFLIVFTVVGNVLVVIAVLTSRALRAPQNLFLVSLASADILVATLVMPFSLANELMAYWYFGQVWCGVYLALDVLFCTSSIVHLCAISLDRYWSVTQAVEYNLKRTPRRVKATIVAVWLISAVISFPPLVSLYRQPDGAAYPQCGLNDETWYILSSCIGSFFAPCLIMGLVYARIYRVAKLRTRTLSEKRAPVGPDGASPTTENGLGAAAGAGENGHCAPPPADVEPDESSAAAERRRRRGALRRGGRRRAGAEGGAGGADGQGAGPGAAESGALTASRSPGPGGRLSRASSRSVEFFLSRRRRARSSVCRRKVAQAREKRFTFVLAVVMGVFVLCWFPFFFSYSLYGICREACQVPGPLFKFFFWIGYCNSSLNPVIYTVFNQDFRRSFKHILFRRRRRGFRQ
No unit in the answer, please; the number alone is enough.

Worked set:
Cc1ccnc(-n2c(-c3ccco3)nc3ccccc3c2=O)c1: 0.0068
CCOC(C(=O)OCC(O)CN(CC)CC)(c1ccccc1)c1ccccc1 (configuration not stated): 0.00508
COCC(C)OC(=O)c1c(N)n(Cc2ccco2)c2nc3ccccc3nc12 (configuration not stated): 0.0047
Cc1ccc2c(c1)[C@@H]1CN(C)CC[C@@H]1N2C(=O)Nc1cccc(C(F)(F)F)c1: 0.0079
CCOc1ccc(-n2c(O)c(C=NCCN3CCNCC3)c(=O)[nH]c2=O)cc1: 0.00537
NCC1(CC(=O)O)CCCCC1: 0.00518
CC(C)[C@@]1(NC(=O)[C@@H]2C[C@@H]3c4cccc5[nH]cc(c45)C[C@H]3N(C)C2)O[C@@]2(O)[C@@H]3CCCN3C(=O)[C@H](Cc3ccccc3)N2C1=O: 0.00471
COc1ccccc1N(CC(=O)NC1CCCCC1)C(=O)c1cnn(C(C)C)c1: 0.00634
CCN1CCN(C(=O)COc2cc(=O)n(CC)c3ccccc23)CC1: 0.00614
O=C(O)CCCc1ccc(N(CCCl)CCCl)cc1: 0.00534

Memo: C[C@H]1OC[C@@H](C[N+](C)(C)C)O1 , reported slope: 0.0176

Memo: Cc1cccc(N2CCc3c2nc2ccccc2c3N)c1 , reported slope: 0.00452

Memo: COc1ccc(CCn2c(O)c(C=NCCCN(C)C)c(=O)[nH]c2=O)cc1OC , reported slope: 0.00426

Memo: CCCCn1c(O)c(C(CC)=Nc2cccc(C(=O)O)c2)c(=O)[nH]c1=O , reported slope: 0.00652

###

experiment: inhibitors of TNFa-induced NFkB p65 translocation, primary screen, imaging, HUVEC, MLSMR starter and 10KST1 sets (AID 438); settings: HUVEC TNFa-induced p65 nuclear translocation; measured here: nuclei count (cytotoxicity indicator), at 2.08 µM;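 further: compound added about 3h40 before a 20 min TNFalpha stimulation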
Label true when cell count >= 500; otherwise false.

Some solved entries appear below for comparison.
O=C1NCCN2CCCC12 (configuration not stated): true
CCOc1ccccc1-n1c(O)c(C=Nc2ccc(N(CC)CC)cc2)c(=O)[nH]c1=O: true
CC(=NCc1ccc2c(c1)OCO2)c1c(O)n(C)c(=O)n(C)c1=O: true

INPUT: Evaluate Cc1ccc(CS(=O)(=O)CCC(=O)N2CCC3(CC2)OCCO3)cc1 : cell count at minimum 500?
OUTPUT: false

INPUT: Evaluate Cc1cnn(C2CCN(C)CC2)c1N : cell count at minimum 500?
OUTPUT: true

INPUT: Evaluate N#Cc1ccccc1Cn1cc(C(=O)C2CC2)c2ccccc21 : cell count at minimum 500?
OUTPUT: false

INPUT: Evaluate CC(NC(C)(C)C)C(=O)c1cccc(Cl)c1 (configuration not stated) : cell count at minimum 500?
OUTPUT: true

INPUT: Evaluate C/C(Cl)=C/CC1(CN2CCCC2=O)C(=O)NC(=O)NC1=O : cell count at minimum 500?
OUTPUT: true

INPUT: Evaluate COC(=O)C(O)(c1c[nH]c2ccccc12)C(F)(F)F (configuration not stated) : cell count at minimum 500?
OUTPUT: false

INPUT: Evaluate Cc1c(N=Cc2c(O)n(CCc3ccccc3)c(=O)[nH]c2=O)c(=O)n(-c2ccccc2)n1C : cell count at minimum 500?
OUTPUT: true

INPUT: Evaluate NCC1(c2ccc3c(c2)OCCO3)CCCC1 : cell count at minimum 500?
OUTPUT: true

INPUT: Evaluate CNCCc1nc(N)n[nH]1 : cell count at minimum 500?
OUTPUT: true

###

test: TLR3 IRF3 reporter activation blockers – cell-based, poly I:C stimulus, luciferase, 10K MLSCN set, primary screen (AID 602277); settings: HEK293-TLR3 RL24 IRF3 luciferase reporter, at 10 µM, stronger effect = higher value
READOUT_KIND: inhibition (%)
Number in %, nothing else.

Worked set:
CCN(CC)CCN=Cc1c(O)n(CCC2=CCCCC2)c(=O)[nH]c1=O: -117
Cc1cccc(-n2c(-c3ccco3)nc3ccccc3c2=O)n1: -10.7
COc1ccc(C2NCc3ccc4c(c3-n3cccc32)OCO4)cc1O (stereo unspecified): 83
CCOc1ccc(Br)c(C2(O)CC(C)N(C)CC2C)c1 (stereo unspecified): 21.4
CN1CCN(c2nc3ccccc3c(=O)n2-c2ccccc2)CC1: 50.1

Attention now shifts to the item below.
Memo: CCCCN1C(=O)NC(=O)C2(Cc3c(nc4c(C)cccn4c3=O)N3CCc4ccccc4C32)C1=O (stereo unspecified) , reported inhibition: 32.3
